Test system: NCI-H23
ASSAY PROCEDURE: NCI tumour cell line growth inhibition, 48 h
Active and inactive are the calls of the source. No stated cut-off is given here; in the data, active = GI50 up to about 1.1 µM and inactive = higher.
Use one of these outcomes when replying: active, inactive

Use these answered entries as a reference point.
# MOLECULE, CLASS LABEL
measured = [
    ("O=C1c2c(c3c4ccccc4n(CC4CO4)c3c3[nH]c4ccccc4c23)C(=O)N1Cc1ccccc1 (stereo not drawn)", "inactive"),
    ("O=c1[nH]/c(=C/c2ccc(OCc3ccccc3)cn2)c(=O)[nH]/c1=C/c1cccnc1", "active"),
    ("CC1CC(c2ccccc2)=Nc2ccccc2S1 (stereo not drawn)", "inactive"),
]

Q: Given CC(C)=CC(=O)OC1C2C(C)=CC(=O)C(O)C2(C)C2C3(O)OCC24C(CC(=O)OC14)C(C)C3O (stereo not drawn) , state the outcome it received in this test.
A: active

Q: Assay outcome for Brc1cc(CCOC2CCCCO2)c(-c2sccc2CCOC2CCCCO2)s1 (stereo not drawn) : what was it?
A: inactive

Q: Please share the test call associated with COC1=CC(=O)[C@@]2(C)C(C)[C@H](c3ccccc3)[C@H]2C1=O (stereo partly drawn) .
A: inactive

Q: Call for entry CCc1ncc(C(C)(O)c2ccccc2)n1Cc1ccccc1 (stereo not drawn) :
A: inactive

---

Test system: CAKI-1
ASSAY PROCEDURE: NCI tumour cell line growth inhibition, 48 h
Active and inactive are the calls of the source. Rule as the data show it: active = GI50 up to about 1.1 µM and inactive = higher.
This listing pairs compounds with measured GI50.

Example entries and their recorded answers appear below.
# COMPOUND, GI50
records = [
    ("O=C1C2=Cc3ccccc3OC2(O)Oc2cc3ccccc3cc21 (configuration not stated)", "> 100 µM (inactive)"),
    ("N/N=C(\\C(=O)Nc1ccc([N+](=O)[O-])cc1)C(C1=Nc2cc([N+](=O)[O-])ccc2NC1)[N+](=O)[O-] (configuration not stated)", "79.4 µM (inactive)"),
    ("COc1ccc2c(c1)OC(c1ccccc1O)CC2=O (configuration not stated)", "51.5 µM (inactive)"),
]

Q: I am curious: what GI50 value has been reported for O=[N+]([O-])c1ccc(/C=C\c2ccc3c(c2)OCO3)c([N+](=O)[O-])c1 ?
A: 25 µM (inactive)

Q: Which GI50 reading was recorded for the compound O=C(O)CN1CCNCCN(CP(=O)(O)O)CC1 ?
A: > 100 µM (inactive)

Q: Quick one: GI50 for O=S(=O)(N1CCCCN(S(=O)(=O)C(F)(F)F)CCCN(S(=O)(=O)C(F)(F)F)CCCCN(S(=O)(=O)C(F)(F)F)CCCN(S(=O)(=O)C(F)(F)F)CCCCN(S(=O)(=O)C(F)(F)F)CCCN(S(=O)(=O)C(F)(F)F)CCCCN(S(=O)(=O)C(F)(F)F)CCC1)C(F)(F)F ?
A: > 31.6 µM (inactive)

Q: # input compound: C=CCOC(=O)[C@@H]1C[C@@H](OC(C)(C)C)CN1C(=O)[C@@H]1[C@H]2OC(C)(C)O[C@H]2CN1C(=O)OCC1c2ccccc2-c2ccccc21 ; wanted: its GI50
A: 4.88 µM (inactive)

---

Tested on: HOP-92
ASSAY PROCEDURE: NCI tumour cell line growth inhibition, 48 h
Active and inactive are the calls of the source. Cut-off read from the data, not from the text of the source: active = GI50 up to about 1.1 µM and inactive = higher.
Below is a list of entries, each paired with its recorded GI50 value.

# MOLECULE, GI50
records = [
    ("Nc1nc(N)c(N=O)c(Nc2ccc(O)cc2)n1", "20.8 µM (inactive)"),
    ("C=CC(=O)N1C/C(=C\\c2ccc(OC)cc2)C(=O)/C(=C/c2ccc(OC)cc2)C1", "6.03 µM (inactive)"),
]

Q: Recorded GI50 for N#CCN1C(=O)c2cc([N+](=O)[O-])cc3cc([N+](=O)[O-])cc(c23)C1=O , please?
A: 17.1 µM (inactive)

Q: Given OC1(c2ccc(Cl)cc2)c2ccccc2-c2nc3ccccc3n21 (stereo unspecified) , state its recorded GI50.
A: > 100 µM (inactive)

Q: For the molecule shown here, C=C(C)C1Cc2c(cc(O)c3c(=O)c4ccccc4n(C)c23)O1 (stereo unspecified) , give the reported GI50.
A: 20.6 µM (inactive)

Q: GI50 lookup needed for COc1ccccc1NC1=NCC(C)S1 (stereo unspecified) , thanks.
A: > 100 µM (inactive)

Q: Entry CCOC(=O)C(=C(SC)SC)c1nn2c(=O)cc(C)nc2s1 : reported GI50 = ?
A: 16.9 µM (inactive)

Q: Param item = CCOc1ccccc1/N=C\c1c2ccccc2cc2ccccc12 ; retrieve measured GI50.
A: 21 µM (inactive)

---

Test system: DU-145
ASSAY PROCEDURE: NCI tumour cell line growth inhibition, 48 h
Activity calls are given as the source filed them. Rule as the data show it: active = GI50 up to about 1.1 µM and inactive = higher. *1 amine or outer side, *2 acyl side, *3 side chain or, on linkers, in order; H or OH if unused. Where a SMILES comes first, the peptide text is derived from it. [ ]: non-standard residue; d: D form. The star is where a group is joined. X31 = CC(=O)N(C)SCC(N[*:1])C(=O)[*:2]; Fmoc = O=C(OCC1c2ccccc2-c2ccccc21)*; For = O=C*
Listed molecules paired with reported GI50

# MOLECULE, STUDY SYSTEM, GI50
rows = [
    ("C=C1CC/C=C(\\C)C(=O)C[C@@H]2[C@@H]1CC2(C)C", "DU-145", "3.16 µM (inactive)"),
    ("COC1Cc2c(C)c(OC(C)=O)c3cccnc3c2O1 (configuration not stated)", "DU-145", "17.3 µM (inactive)"),
    ("CC(=O)N(C)SCC(NC(=O)C(Cc1ccccc1)NC(=O)OCC1c2ccccc2-c2ccccc21)C(=O)NC(Cc1ccccc1)C(=O)NC(Cc1cn(C=O)c2ccccc12)C(=O)NC(CCCCNC(=O)OCC1c2ccccc2-c2ccccc21)C(=O)NC(C(=O)NC(CSN(C)C(C)=O)C(=O)NC(C(N)=O)C(C)O)C(C)O (configuration not stated) (Fmoc-F[X31]FW(For)K(Fmoc)T[X31]T-NH2; configuration not given here)", "DU-145", "> 100 µM (inactive)"),
    ("Nc1nc(N)c(N=O)c(Nc2ccc(O)cc2)n1", "DU-145", "34.6 µM (inactive)"),
]

Q: Would you mind telling me what GI50 value was observed for Cc1nn(C(=O)c2ccc(Cl)cc2)c2c1C(c1ccccc1O)SC(=N)N2 (configuration not stated) ?
A: > 10 µM (inactive)

Q: Please give the measured GI50 for this molecule: N#Cc1ccc(Oc2nc3ccccc3nc2-c2ccccc2)cc1
A: > 100 µM (inactive)

Q: I am curious: what GI50 value has been reported for Oc1ccc(-c2nc3cc(C(F)(F)F)ccc3n2CC2CCCN3CCCCC23)cc1 (configuration not stated) ?
A: 17.1 µM (inactive)

---

Test system: HCT-15
ASSAY PROCEDURE: NCI tumour cell line growth inhibition, 48 h
Response field label takes Fulfilled when GI50 is strictly below 30 µM and Not fulfilled in all other cases.

Previously resolved entries follow.
# COMPOUND, STUDY SYSTEM, CLASS LABEL
data = [
    ("S=C(NC/C(Br)=C/Br)Nc1cccc2ccccc12", "HCT-15", "Not fulfilled"),
    ("O=c1cc(O)c1=O", "HCT-15", "Not fulfilled"),
    ("CN1C(=O)N(c2nc3ccccc3[nH]2)C(C)(C)C1=O", "HCT-15", "Not fulfilled"),
]

Q: Is GI50 strictly under 30 µM for the entry CCOC(=O)C1CN(C2CC2)CCC1=O (centres undefined) ?
A: Not fulfilled

Q: Lab note: GI50 threshold 30 µM. Does this compound come in strictly under it? CC(=O)O[C@@H]1C[C@@]23C[C@@]24CC[C@H](OC2OCC(O)C(O)C2O)C(C)(C)[C@@H]4CC=C3[C@]2(C)C[C@@H]3OC4(C[C@@H](C)[C@@H]3[C@@]12C)OC(O)[C@@]1(C)O[C@@H]41 (some centres undefined)
A: Not fulfilled

Q: is_below(GI50, 30 µM) for C[C@]12CCC(N3CCCC3)CC1=CC[C@@H]1[C@@H]2CC[C@]2(C)C(O)[C@H](n3ccnc3)C[C@@H]12 (some centres undefined) ?
A: Fulfilled

Q: Is GI50 of Cn1c(=O)c2nc(SCCN3CCOCC3)[nH]c2n(C)c1=S strictly below 30 µM?
A: Not fulfilled

Q: Given the entry CCCCC1Nc2ccccc2-c2ccnc(Cl)c21 (centres undefined) , would its reported GI50 be below 30 µM?
A: Fulfilled

---

Tested on: A498
ASSAY PROCEDURE: NCI tumour cell line growth inhibition, 48 h
Activity calls are given as the source filed them. Rule as the data show it: active = GI50 up to about 1.1 µM and inactive = higher.
Give your call using only these classes: active, inactive

Previously resolved entries follow.
# COMPOUND, CLASS LABEL
data = [
    ("Cc1c(/C=C2\\CC/C(=C\\c3[nH]c(C(=O)OC(C)(C)C)c(C)c3C)C2=O)[nH]c(C(=O)OC(C)(C)C)c1C", "inactive"),
    ("CCCCC1Nc2ccccc2-c2ccnc(Cl)c21 (stereo not given)", "inactive"),
    ("CC1=CC(=O)CC2(C)CCC(C(C)CC(=O)CC(C)C)CC12 (stereo not given)", "inactive"),
]

Q: Hi team, can someone confirm the assay call for CC(C)=CCC/C(C)=C/COC(C)(C)C1=CCC(C)CC1.CC(C)=CCC/C(C)=C/COC1CC(C)CCC1=C(C)C (stereo not given) ?
A: inactive

Q: Outcome logged for COc1cc(C2c3cc4c(cc3[C@@H](Nc3cccc(CO)c3)C3COC(=O)[C@H]23)OCO4)cc(OC)c1O (stereo not given in full) in this assay:
A: active

Origin of values: ChEMBL document CHEMBL1201862
